# protocolSummary: Safety index, ratio of arrhythmogenic concentration to minimum positive inotropic effective concentration causing myocardial contraction in guinea pig left atrial muscles
# Format: toxicity, tissue-based, Cavia porcellus, Muscle tissue
# condition: isolated left atrial muscles

{"compound": "C[C@H]1O[C@@H](O[C@H]2CC[C@]3(C)[C@H]4CC[C@]5(C)[C@@H](C6=CC(=O)OC6)CC[C@]5(O)[C@@H]4CC[C@]3(O)C2)[C@H](O)[C@H](O)[C@H]1O [ANTIAROSIDE A]", "selectivity ratio": 4.3}
{"compound": "CO[C@H]1[C@@H](O[C@H]2CC[C@]3(C=O)[C@H]4C[C@@H](O)[C@]5(C)[C@@H](C6=CC(=O)OC6)CC[C@]5(O)[C@@H]4CC[C@]3(O)C2)O[C@H](C)[C@@H](O)[C@@H]1O [TOXICARIOSIDE B]", "selectivity ratio": 10}

---

# protocolSummary: Safety index, ratio of arrhythmogenic concentration to minimum positive inotropic effective concentration causing myocardial contraction in guinea pig left atrial muscles
# Assay type: toxicity, tissue-based, Cavia porcellus, Muscle tissue
# condition: isolated left atrial muscles
The label is yes for selectivity ratio below 10 and no for selectivity ratio equal to or exceeding 10.

{"molecule": "C[C@]12CC[C@H]3[C@@H](CC[C@]4(O)C[C@@H](O)CC[C@]34C=O)[C@@]1(O)CC[C@@H]2C1=CC(=O)OC1 [STROPHANTHIDIN]", "labelClass": "yes"}
{"molecule": "C[C@]12CC[C@H]3[C@@H](CC[C@]4(O)C[C@@H](O)CC[C@]34CO)[C@@]1(O)CC[C@@H]2C1=CC(=O)OC1 [STROPHANTHIDOL]", "labelClass": "yes"}
{"molecule": "C[C@@H]1O[C@@H](O[C@H]2CC[C@]3(C=O)[C@H]4CC[C@]5(C)[C@@H](C6=CC(=O)OC6)CC[C@]5(O)[C@@H]4CC[C@]3(O)C2)[C@H](O)[C@H](O)[C@H]1O[C@@H]1O[C@H](CO)[C@@H](O)[C@H](O)[C@H]1O [CONVALLOSIDE]", "labelClass": "no"}
{"molecule": "C[C@@H]1O[C@H](O[C@@H]2CC[C@]3(C=O)[C@H]4CC[C@]5(C)[C@@H](C6=CC(=O)OC6)CC[C@]5(O)[C@@H]4CC[C@]3(O)C2)[C@H](O)[C@H](O)[C@H]1O [ANTIAROSIDE C]", "labelClass": "no"}
{"molecule": "C[C@]12[C@H](O)C[C@H]3[C@@H](CC[C@]4(O)CCCC[C@]34C=O)[C@@]1(O)CC[C@@H]2C1=CC(=O)OC1 [ANTIARIGENIN]", "labelClass": "no"}
{"molecule": "C[C@@H]1O[C@@H](O[C@H]2CC[C@@]3(CO)[C@H](CC[C@@H]4[C@@H]3CC[C@]3(C)[C@@H](C5=CC(=O)OC5)CC[C@]43O)C2)[C@H](O)[C@H](O)[C@H]1O[C@@H]1O[C@H](CO)[C@@H](O)[C@H](O)[C@H]1O [ANTIAROSIDE B]", "labelClass": "yes"}
{"molecule": "C[C@@H]1O[C@@H](O[C@H]2C[C@@H](O)[C@]3(CO)[C@H]4[C@H](O)C[C@]5(C)[C@@H](C6=CC(=O)OC6)CC[C@]5(O)[C@@H]4CC[C@]3(O)C2)[C@H](O)[C@H](O)[C@H]1O [OUABAIN]", "labelClass": "no"}
{"molecule": "C[C@]12CC[C@H](O)C[C@@]1(O)CC[C@@H]1[C@@H]2CC[C@]2(C)[C@@H]([C@]3(O)COC(=O)C3)CC[C@]12O [ANTIAROTOXININ A]", "labelClass": "no"}
{"molecule": "C[C@@H]1O[C@H](O[C@H]2CC[C@@]3(C(=O)O[C@@H]4O[C@H](CO)[C@@H](O)[C@H](O)[C@H]4O)[C@H](CC[C@@H]4[C@@H]3CC[C@]3(C)[C@@H](C5=CC(=O)OC5)CC[C@]43O)C2)[C@H](O)[C@H](O)[C@H]1O [ANTIAROSIDE F]", "labelClass": "yes"}
{"molecule": "C[C@H]1O[C@H](O[C@H]2CC[C@]3(C(=O)O)[C@H]4C[C@@H](O)[C@]5(C)[C@@H](C6=CC(=O)OC6)CC[C@]5(O)[C@@H]4CC[C@]3(O)C2)[C@H](O)[C@H](O)[C@H]1O [ANTIAROSIDE H]", "labelClass": "yes"}
{"molecule": "C[C@H]1O[C@@H](O[C@H]2CC[C@]3(C=O)[C@H]4CC[C@]5(C)[C@@H](C6=CC(=O)OC6)CC[C@]5(O)[C@@H]4CC[C@]3(O)C2)[C@H](O)[C@H](O)[C@H]1O [DESGLUCOCHEIROTOXIN]", "labelClass": "no"}

---

# protocolSummary: Safety index, ratio of arrhythmogenic concentration to minimum positive inotropic effective concentration causing myocardial contraction in guinea pig right ventricular muscles
# Format: toxicity, tissue-based, Cavia porcellus, Muscle tissue
# condition: isolated right ventricular muscles
# maps each entry to its selectivity ratio
quantityName: selectivity ratio

{"compound": "C[C@H]1O[C@@H](O[C@H]2CC[C@]3(C)[C@H]4CC[C@]5(C)[C@@H](C6=CC(=O)OC6)CC[C@]5(O)[C@@H]4CC[C@]3(O)C2)[C@H](O)[C@H](O)[C@H]1O [ANTIAROSIDE A]", "endpointValue": 2}
{"compound": "C[C@@H]1O[C@@H](O[C@H]2CC[C@]3(C=O)[C@H]4CC[C@]5(C)[C@@H](C6=CC(=O)OC6)CC[C@]5(O)[C@@H]4CC[C@]3(O)C2)[C@H](O)[C@H](O)[C@H]1O[C@@H]1O[C@H](CO)[C@@H](O)[C@H](O)[C@H]1O [CONVALLOSIDE]", "endpointValue": 9}
{"compound": "C[C@@H]1O[C@H](O[C@H]2CC[C@@]3(C=O)[C@H](CC[C@@H]4[C@@H]3CC[C@]3(C)[C@@H](C5=CC(=O)OC5)CC[C@]43O)C2)[C@H](O)[C@H](O)[C@H]1O [MALAYOSIDE]", "endpointValue": 24}
{"compound": "C[C@@H]1O[C@@H](O[C@H]2C[C@@H](O)[C@]3(CO)[C@H]4[C@H](O)C[C@]5(C)[C@@H](C6=CC(=O)OC6)CC[C@]5(O)[C@@H]4CC[C@]3(O)C2)[C@H](O)[C@H](O)[C@H]1O [OUABAIN]", "endpointValue": 20}

---

# protocolSummary: Cardiotonic activity in guinea pig left atrial muscles assessed as minimum positive inotropic effective concentration causing myocardial contraction
# Type: functional, Cavia porcellus, Muscle tissue
Quick rule: Activity of at least 0.1 µM means criterion met, below that means criterion not met.

{"molecule": "C[C@@H]1O[C@H](O[C@H]2CC[C@@]3(C(=O)O[C@@H]4O[C@H](CO)[C@@H](O)[C@H](O)[C@H]4O)[C@H](CC[C@@H]4[C@@H]3CC[C@]3(C)[C@@H](C5=CC(=O)OC5)CC[C@]43O)C2)[C@H](O)[C@H](O)[C@H]1O [ANTIAROSIDE F]", "labelClass": "criterion met"}
{"molecule": "C[C@@H]1O[C@@H](O[C@H]2C[C@@H](O)[C@]3(CO)[C@H]4[C@H](O)C[C@]5(C)[C@@H](C6=CC(=O)OC6)CC[C@]5(O)[C@@H]4CC[C@]3(O)C2)[C@H](O)[C@H](O)[C@H]1O", "labelClass": "criterion not met"}
{"molecule": "CO[C@H]1[C@@H](O[C@H]2CC[C@]3(C=O)[C@H]4CC[C@]5(C)[C@@H](C6=CC(=O)OC6)CC[C@]5(O)[C@@H]4CC[C@]3(O)C2)O[C@H](C)[C@@H](O)[C@H]1O (stereo in doubt; 18) [STROPHATHOJAVOSIDE]", "labelClass": "criterion met"}
{"molecule": "C[C@]12[C@H](O)C[C@H]3[C@@H](CC[C@]4(O)CCCC[C@]34C=O)[C@@]1(O)CC[C@@H]2C1=CC(=O)OC1 [ANTIARIGENIN]", "labelClass": "criterion not met"}
{"molecule": "C[C@H]1O[C@@H](O[C@H]2CC[C@]3(C=O)[C@H]4CC[C@]5(C)[C@@H](C6=CC(=O)OC6)CC[C@]5(O)[C@@H]4CC[C@]3(O)C2)[C@H](O)[C@H](O)[C@H]1O", "labelClass": "criterion not met"}
{"molecule": "C[C@@H]1O[C@H](O[C@H]2CC[C@@]3(C(=O)O)[C@H](CC[C@@H]4[C@@H]3CC[C@]3(C)[C@@H](C5=CC(=O)OC5)CC[C@]43O)C2)[C@H](O)[C@H](O)[C@H]1O [ANTIAROSIDE E]", "labelClass": "criterion met"}
{"molecule": "C[C@]12CC[C@H]3[C@@H](CC[C@]4(O)C[C@@H](O)CC[C@]34C=O)[C@@]1(O)CC[C@@H]2C1=CC(=O)OC1", "labelClass": "criterion met"}
{"molecule": "C[C@@H]1O[C@H](O[C@H]2CC[C@@H]3[C@H]4CC[C@]5(C)[C@@H](C6=CC(=O)OC6)CC[C@]5(O)[C@@H]4CC[C@]3(O)C2)[C@H](O)[C@H](O)[C@H]1O [ANTIAROSIDE I]", "labelClass": "criterion met"}
{"molecule": "C[C@@H]1O[C@H](O[C@H]2CC[C@]3(C)[C@H]4CC[C@]5(C)[C@@H](C6=CC(=O)OC6)CC[C@]5(O)[C@@H]4CC[C@]3(O)C2)[C@H](O)[C@H](O)[C@H]1O [PERIPLORHAMNOSIDE]", "labelClass": "criterion not met"}
{"molecule": "C[C@@H]1O[C@H](O[C@H]2CC[C@@]3(C=O)[C@H](CC[C@@H]4[C@@H]3CC[C@]3(C)[C@@H](C5=CC(=O)OC5)CC[C@]43O)C2)[C@H](O)[C@H](O)[C@H]1O [MALAYOSIDE]", "labelClass": "criterion met"}
{"molecule": "C[C@H]1O[C@H](O[C@H]2CC[C@]3(C=O)[C@H]4CC[C@]5(C)[C@@H](C6=CC(=O)OC6)CC[C@]5(O)[C@@H]4CC[C@]3(O)C2)[C@H](O)[C@H](O[C@@H]2O[C@H](CO)[C@@H](O)[C@H](O)[C@H]2O)[C@@H]1O [GLUCOSTROPHALLOSIDE]", "labelClass": "criterion met"}
{"molecule": "C[C@H]1O[C@H](O[C@H]2CC[C@]3(C(=O)O)[C@H]4C[C@@H](O)[C@]5(C)[C@@H](C6=CC(=O)OC6)CC[C@]5(O)[C@@H]4CC[C@]3(O)C2)[C@H](O)[C@H](O)[C@H]1O [ANTIAROSIDE H]", "labelClass": "criterion met"}
{"molecule": "C[C@@H]1O[C@H](O[C@@H]2CC[C@]3(C=O)[C@H]4CC[C@]5(C)[C@@H](C6=CC(=O)OC6)CC[C@]5(O)[C@@H]4CC[C@]3(O)C2)[C@H](O)[C@H](O)[C@H]1O [ANTIAROSIDE C]", "labelClass": "criterion met"}
